TARGET: T1, HLA-A*0201 (human)
T1 construct: also called HLA-A2.1; HLA A2.1
ASSAY_NAME: iTopia affinity;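 note: peptide affinity for plate-bound HLA-A2 molecules (iTopia system), with ED50 derived from an eight-point serial peptide dilution series run under binding assay conditions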
PROPERTY_LABEL: ED50 (µM)
Quick note: give the figure in µM, leave out the unit.

- BINDER: "LVLKENSEL [cdr2 225-233 LVLKENSEL]"
  RECORDED_MEASUREMENT: 7

-- ask Which ED50 reading was recorded for the binder MLQAQLSLE [cdr2 204-212 MLQAQLSLE] ?
-- reply 5

-- ask Fill in the blank: the reported ED50 of LLHEVDTQY [cdr2 345-353 LLHEVDTQY] is ____.
-- reply 7

-- ask GET /values?readout=ED50&item= ALKVKYEEL [cdr2 355-363 ALKVKYEEL]
-- reply 7
